Source listed as patent US20240083846A1.

test: Pharmacokinetics of C6 in mice (IV, SC, oral); conditions: mouse, plasma, po, 30 mg/kg

>  <molecule-smiles>
CC[C@H](C)[C@H](NC(=O)[C@@H]1CC[C@H](c2ccc(C)o2)N1C(=O)[C@@H](NC(=O)[C@H](C)NC)C(C)C)C(=O)NC(c1ccccc1)c1ccccc1

>  <Tmax (h)>
1.08

$$$$

====

test: Pharmacokinetics of C6 in mice (IV, SC, oral); details: mouse, plasma, oral, 30 mg/kg

>  <molecule-smiles>
CC[C@H](C)[C@H](NC(=O)[C@@H]1CC[C@H](c2ccc(C)o2)N1C(=O)[C@@H](NC(=O)[C@H](C)NC)C(C)C)C(=O)NC(c1ccccc1)c1ccccc1

>  <units-symbol>
%

>  <bioavailability>
55.9

$$$$
